What pIC50 was measured for each of the following?
molecular target: recombinant BChE (hBChE, E.C. 3.1.1.8) (Homo sapiens); test: biochemical; conditions: mean ± SEM of three independent measurements, each in triplicate
Units for pIC50: none; it is -log10 of a concentration expressed in mol/L.

pIC50 measured on `COc1ccccc1CCNCc1ccc(OCc2ccccc2)cc1` = 6.10

Data point: `CCCN(CCc1ccccc1)Cc1cccc(OCc2ccccc2)c1` ; pIC50 = 6.15

Form: molecule = `Oc1ccc(CCNCc2cccc(OCc3ccccc3)c2)cc1` ; pIC50 = 6.71

Measured pIC50, CCN(Cc1ccc(OCc2ccccc2)cc1)C(C)CCc1ccccc1 (centres unmarked) : 6.30

GET /value?item= `c1ccc(CNCc2cccc(OCc3ccccc3)c2)cc1` &field=pIC50 returns 6.30

Note to self: pIC50 recorded for `C=CCN(CCCc1ccccc1)Cc1cccc(OCc2ccccc2)c1` was 5.92

`COc1ccc(CCNCc2ccc(OCc3ccccc3)cc2)cc1` yielded pIC50 of 5.52

The recorded pIC50 for entry `CCCN(CCc1ccc(O)cc1)Cc1ccc(OCc2ccccc2)cc1` equals 6.78

Per the record, `COc1cccc(CCNCc2ccc(OCc3ccccc3)cc2)c1` has pIC50 of 5.31

The recorded pIC50 for `c1ccc(CCNCc2cccc(OCc3ccccc3)c2)cc1` is 6.22

Reported pIC50 of `c1ccc(CNCc2ccc(OCc3ccccc3)cc2)cc1` : 5.55

// `CCN(Cc1ccccc1)Cc1cccc(OCc2ccccc2)c1` : pIC50 value = 6.30

Measured pIC50 of `CCCN(CCCc1ccccc1)Cc1ccc(OCc2ccccc2)cc1` : 6.54

# pIC50 of `C=CCN(CCc1ccccc1)Cc1cccc(OCc2ccccc2)c1` = 5.11

# molecule `C=CCOc1ccc(CCNCc2cccc(OCc3ccccc3)c2)cc1` ; its pIC50 = 5.40

So for CC(CNCc1ccc(OCc2ccccc2)cc1)c1ccccc1 (centres unmarked) , the logged pIC50 turned out to be 5.80

Please fill in: pIC50 reported for `C=CCN(CCc1ccc(O)cc1)Cc1cccc(OCc2ccccc2)c1` = 6.22

---

molecular target: recombinant BChE (hBChE, E.C. 3.1.1.8) (Homo sapiens); construct: purchased Sigma-Aldrich, Prague, Czech Republic; assay: biochemical; assay type: biochemical; conditions: tested at 10 μM compound concentration; read-out: % inhibition of hBChE ± SEM
Record met whenever inhibition at 10 µM is at 80% or higher; record not met when lower.

## Task Quick check, inhibition at 10 µM >= 80%? `c1ccc(CCNCc2cccc(OCc3ccccc3)c2)cc1`
## Result met

## Task In plain terms: is recorded inhibition at 10 µM at least 80% for `C=CCOc1ccc(CCNCc2cccc(OCc3ccccc3)c2)cc1` ?
## Result not met

## Task Please tell me: is the compound `COc1ccc(CCNCc2ccc(OCc3ccccc3)cc2)cc1` at or over 80% in terms of inhibition at 10 µM?
## Result met

## Task Please tell me: is the compound `COc1ccc(CNCc2cccc(OCc3ccccc3)c2)cc1OC` at or over 80% in terms of inhibition at 10 µM?
## Result not met

## Task API: above_or_equal(metric=inhibition at 10 µM, cutoff=80%) for item `CCN(CCc1ccccc1)Cc1cccc(OCc2ccccc2)c1`
## Result met

## Task Determine whether this compound has inhibition at 10 µM no lower than 80%: `C=CCOc1ccc(CCN(CC=C)Cc2cccc(OCc3ccccc3)c2)cc1`
## Result not met

## Task Reported inhibition at 10 µM reaches at least 80% for `c1ccc(CCCCNCc2ccc(OCc3ccccc3)cc2)cc1` ?
## Result met

## Task Evaluate `CCN(Cc1ccccc1)Cc1cccc(OCc2ccccc2)c1` : inhibition at 10 µM at minimum 80%?
## Result met

## Task Confirm if inhibition at 10 µM reported for the compound CC(CNCc1cccc(OCc2ccccc2)c1)c1ccccc1 (centres unmarked) is 80% or above.
## Result met

## Task // inclusive: inhibition at 10 µM at least 80%? input: `COc1ccc(CCNCc2cccc(OCc3ccccc3)c2)cc1`
## Result not met

## Task Please tell me: is the compound `CCCOc1ccc(CCN(CCC)Cc2ccc(OCc3ccccc3)cc2)cc1` at or over 80% in terms of inhibition at 10 µM?
## Result not met

## Task Reported inhibition at 10 µM at or above 80%? `C=CCN(CCc1ccccc1)Cc1cccc(OCc2ccccc2)c1`
## Result not met

## Task Identify whether the reported inhibition at 10 µM of the following compound is 80% or greater: `Oc1ccc(CCNCc2cccc(OCc3ccccc3)c2)cc1`
## Result met

## Task Hi, just wondering whether `CCN(CCCc1ccccc1)Cc1cccc(OCc2ccccc2)c1` shows inhibition at 10 µM of 80% or higher.
## Result met

## Task Could you please find out whether `COc1cccc(CCNCc2ccc(OCc3ccccc3)cc2)c1` has inhibition at 10 µM that meets 80% or exceeds it?
## Result not met

## Task For this compound, is measured inhibition at 10 µM 80% or higher? CC(CNCc1ccc(OCc2ccccc2)cc1)c1ccccc1 (centres unmarked)
## Result met

## Task For this compound, is measured inhibition at 10 µM 80% or higher? `CCCN(CCc1ccc(O)cc1)Cc1ccc(OCc2ccccc2)cc1`
## Result met

## Task hey, is inhibition at 10 µM for this one >= 80%? `C=CCN(CCc1ccc(O)cc1)Cc1cccc(OCc2ccccc2)c1`
## Result met

## Task Reported inhibition at 10 µM reaches at least 80% for `c1ccc(CCCNCc2ccc(OCc3ccccc3)cc2)cc1` ?
## Result met

---

test system: HepG2 cells; details: human, 24 h
Hi there, I'd appreciate the recorded Safety index for every entry that follows.
Lab note: jot down the number only; don't add units.

HepG2 cells Safety index of CC(CNCc1cccc(OCc2ccccc2)c1)c1ccccc1 (centres unmarked) is 290

The compound `COc1ccccc1CCNCc1cccc(OCc2ccccc2)c1` , when measured on HepG2 cells, yielded Safety index of 130

# lookup: `Oc1ccc(CCNCc2cccc(OCc3ccccc3)c2)cc1` on HepG2 cells, Safety index = 310

Sample `Oc1ccc(CCNCc2ccc(OCc3ccccc3)cc2)cc1` , system: HepG2 cells. Its Safety index is 500

`CCCN(CCc1ccc(O)cc1)Cc1ccc(OCc2ccccc2)cc1` on HepG2 cells gives Safety index = 560

---

biological target: recombinant BChE (hBChE, E.C. 3.1.1.8) (Homo sapiens, UniProt P06276); assay: biochemical; conditions: mean ± SEM of three independent measurements, each in triplicate
Sequence (P06276 29-602): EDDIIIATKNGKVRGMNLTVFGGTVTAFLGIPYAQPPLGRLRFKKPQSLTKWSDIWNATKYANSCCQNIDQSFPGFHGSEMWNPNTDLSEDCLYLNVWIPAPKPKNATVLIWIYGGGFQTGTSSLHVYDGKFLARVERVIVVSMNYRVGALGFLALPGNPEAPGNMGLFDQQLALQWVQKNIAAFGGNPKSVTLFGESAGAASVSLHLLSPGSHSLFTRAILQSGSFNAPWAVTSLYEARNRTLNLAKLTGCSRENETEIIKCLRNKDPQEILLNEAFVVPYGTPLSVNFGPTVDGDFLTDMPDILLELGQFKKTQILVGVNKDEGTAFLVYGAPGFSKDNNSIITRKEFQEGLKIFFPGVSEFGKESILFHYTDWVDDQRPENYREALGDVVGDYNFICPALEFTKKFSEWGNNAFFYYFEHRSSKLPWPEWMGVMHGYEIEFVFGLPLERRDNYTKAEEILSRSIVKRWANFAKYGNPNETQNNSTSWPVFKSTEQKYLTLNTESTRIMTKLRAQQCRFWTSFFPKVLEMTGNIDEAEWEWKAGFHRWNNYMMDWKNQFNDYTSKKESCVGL
pIC50: −log10 of the molar value.
METRIC NAME: pIC50

Looking up `c1ccc(COc2ccc(CNCc3ccccn3)cc2)cc1` , I see its pIC50 listed as < 5.00

The recorded pIC50 for entry `CCCOc1ccc(CCN(CCC)Cc2ccc(OCc3ccccc3)cc2)cc1` equals < 5.00

For reference, reported pIC50 for `C=CCN(Cc1ccccc1)Cc1cccc(OCc2ccccc2)c1` stands at < 5.00

Source of measurements: paper PMC11110763
